Origin of the recorded values: PubChem BioAssay (NCI)

system: SK-OV-3 ovarian; assay: NCI tumour cell line growth inhibition, 48 h
value-type: GI50

Worked examples follow.
[
  {
    "item-smiles": "COc1ccccc1-c1ccc2c(N)c(C(=O)c3ccc4c(c3)OCO4)sc2n1",
    "GI50": "5.97 µM"
  },
  {
    "item-smiles": "CCCCCCCCCCCCSC1=CC(=O)C=CC1=O",
    "GI50": "12.2 µM"
  },
  {
    "item-smiles": "COC(=O)c1cc2c([nH]c3ccccc32)c(-c2nc3ccccc3cc2CO)n1",
    "GI50": "55.9 µM"
  },
  {
    "item-smiles": "Cc1cnc(-c2ccc(-c3ccc(NC(=O)Nc4cccc(C(F)(F)F)c4)cc3F)c3c2C(=O)NC3)[nH]1",
    "GI50": "6.97 µM"
  }
]

Please examine the following record next.
Lookup result for "Cl.[O-]c1cccc2cccnc12.[O-]c1cccc2cccnc12.[O-]c1cccc2cccnc12.[O-]c1cccc2cccnc12.[Ti+4]" ; measured GI50: 3.94 µM

---

Please provide measured TGI for the entries that follow.
tested on: U251 CNS; assay: NCI tumour cell line growth inhibition, 48 h

Worked examples follow.
[
  {
    "compound": "CCn1c(=O)c2c3ccc(O)cc3[nH]c2c2ccc(O)cc21",
    "value-type": "TGI",
    "result": "> 100 µM"
  },
  {
    "compound": "NC1C2C=CC(C2)C1C(=O)O (stereo unspecified)",
    "value-type": "TGI",
    "result": "> 100 µM"
  },
  {
    "compound": "COc1ccc(C(=O)/C=C/c2c(C(F)(F)F)nc3ccccn23)cc1OC",
    "value-type": "TGI",
    "result": "> 100 µM"
  }
]

Hi! Can you tell me TGI for each of these compounds?
1. O=c1[nH]nc(-c2ccccc2)n1-n1cccc1
2. O=C1/C=C/[C@@H](O)[C@@H]2C[C@@H](O)C[C@H]2/C=C/CCC[C@H](CCc2ccc(NC(=S)Nc3ccc4c(c3)C(=O)OC43c4ccc(O)cc4Oc4cc(O)ccc43)cc2)O1
3. COc1ccc2[nH]cc(Cc3c[nH]c4ccc(OC)cc34)c2c1

(A)
1. > 100 µM
2. > 100 µM
3. 29.4 µM

---

tested on: UACC-257 melanoma; assay: NCI tumour cell line growth inhibition, 48 h
value-type: TGI (µM)
Numbers only, in µM.

[
  {
    "item-smiles": "Cc1ccc(/C=C2\\CCS(=O)(=O)c3ccccc3C2=O)cc1",
    "system-name": "UACC-257 melanoma",
    "TGI, µM": 35.1
  }
]

Please examine the following record next.
Lookup result for "O=C(NCCCN1CCN(CCCNC(=O)c2cc(-c3ccccc3)nc3ccccc23)CC1)c1cc(-c2ccccc2)nc2ccccc12" ; measured TGI: 5.45

---

tested on: ACHN renal; experiment: NCI tumour cell line growth inhibition, 48 h; in the data active means GI50 below about 0.43 µM; inactive means the rest
Outcomes you can answer with include only these: y (active), n (inactive)

A selection of reference data follows.
[
  {
    "molecule": "O=C1c2c(c3c4ccccc4n(CCCCCCN4CCOCC4)c3c3[nH]c4ccccc4c23)C(=O)N1O",
    "group": "n"
  },
  {
    "molecule": "COc1ccc(-c2nsc3c2NC(=O)CC3c2cccc(F)c2)cc1 (stereo not given)",
    "group": "n"
  },
  {
    "molecule": "COc1ccc2c(c1)C(=O)/C(=C/c1cccc(OCC(=O)c3ccc([N+](=O)[O-])cc3)c1)CO2",
    "group": "n"
  },
  {
    "molecule": "COC(=O)c1cc2c([nH]c3ccccc32)c(-c2nc3ccccc3cc2CO)n1",
    "group": "n"
  },
  {
    "molecule": "Cc1cc(C(=O)CC(Cl)=C(Cl)Cl)c(Cl)cc1Cl",
    "group": "n"
  }
]

(Q) // param item: "COc1cc(C(=O)c2cnc(-c3ccc4cc[nH]c4c3)[nH]2)cc(OC)c1OC" ; yields the recorded call
(A) y

(Q) // param item: O=C1NC(c2cccc3ccccc23)Nc2ccccc21 (stereo not given) ; yields the recorded call
(A) y

(Q) // param item: "O=C(C(=O)c1cccnc1)c1cccnc1" ; yields the recorded call
(A) n

(Q) // param item: "COc1ccccc1-c1ccc2c(N)c(C(=O)c3ccc4c(c3)OCO4)sc2n1" ; yields the recorded call
(A) n

(Q) // param item: C=C1C(=O)O[C@H]2[C@H]1CC/C(CNC(=O)C(C)c1ccc(CC(C)C)cc1)=C\CC[C@@]1(C)O[C@@H]21 (stereo not given in full) ; yields the recorded call
(A) n
